Target: aldose reductase (Rattus norvegicus, UniProt P07943)
Construct: their crystalline lenses were immediately removed and stored at -80° C; The lenses were homogenized; from tissue; host or cells: crystalline lens of six-week-old male SD rats (homogenate supernatant, dialysed)
Test: Aldose Reductase Inhibition Test (Experiment 1)
Assay type: biochemical, rat (male SD rat crystalline lens)
Settings: final concentration 5×10^-5 M (values without asterisk); DL-glycerine aldehyde 10 mM, pH 6.2, 30° C., 5 min
Threshold check on inhibition at 50 µM: at or above 80% gives True, strictly below gives False.

Answered examples (5):
COMPOUND: CCCCOC(=O)C(=O)Nc1cc(-c2nnn[nH]2)cc(NC(=O)C(=O)OCCCC)c1Cl [Compound 4-4]
ASSIGNED CLASS: True
--
COMPOUND: COC(=O)Cn1nnnc1-c1ccc(C)cc1 [Compound 1-7]
ASSIGNED CLASS: False
--
COMPOUND: O=C(O)CCCCn1nnnc1-c1ccccc1 [Compound 3-17, 5-(5-Phenyltetrazol-1-yl)valeric acid]
ASSIGNED CLASS: False
--
COMPOUND: O=C(O)Cn1nnnc1-c1cccc(NC(=O)C(=O)O)c1 [Compound 3-12]
ASSIGNED CLASS: True
--
COMPOUND: CCCCOC(=O)Cn1nnnc1-c1ccccc1 [Compound 1-4, n-Butyl 5-phenyl-1-tetrazoleacetate]
ASSIGNED CLASS: False

QUERY: Reported inhibition at 50 µM at or above 80%? CCOC(=O)C(=O)Nc1cc(-c2nnn[nH]2)cc(NC(=O)C(=O)OCC)c1Cl [Compound 4-3]
RESULT: True

QUERY: Reported inhibition at 50 µM at or above 80%? O=C(O)Cn1nnnc1-c1ccc(-c2nnnn2CC(=O)O)cc1 [Compound 3-13]
RESULT: True

QUERY: Reported inhibition at 50 µM at or above 80%? COC(=O)Cn1nnnc1-c1cccc([N+](=O)[O-])c1 [Compound 2-4]
RESULT: False

QUERY: Reported inhibition at 50 µM at or above 80%? CC(C(=O)O)n1nnnc1-c1ccccc1 (stereo not shown) [Compound 3-18, 2-(5-Phenyltetrazol-1-yl)propionic acid]
RESULT: True

QUERY: Reported inhibition at 50 µM at or above 80%? COC(=O)Cn1nnnc1-c1ccccc1 [Compound 1-1, methyl 5-phenyl-1-tetrazoleacetate]
RESULT: True
